test system: CP252; assay: qHTS profiling for inhibitors of Plasmodium falciparum proliferation (AID 504749); also: nearly all actives have a fitted effect of over 60% in size; conditions: P. falciparum in erythrocytes, SYBR Green DNA, 72 h; series mostly up to 28.7 µM
Records with an inconclusive call do not appear. Active and inactive are the calls of the source. Calls follow the shape of the dose curve; as a rule, active = well fitted inhibition curve with a large enough effect; inconclusive = small, poorly fitted or top-dose-only effect; inactive = flat fitted curve, though single readings scatter.
API: response.call in T for active, F for inactive

Consider the worked cases shown below.
Cc1cnc(NC(=O)C2C(=O)c3ccccc3S(=O)(=O)N2C)s1 (stereo unspecified) :: F
CCCCC(=O)OCC(=O)[C@]1(O)Cc2c(O)c3c(c(O)c2[C@H](OC2CC(NC(=O)C(F)(F)F)C(O)C(C)O2)C1)C(=O)c1c(OC)cccc1C3=O (stereo partly specified) :: T
COc1ccc2cc1Oc1cc3c(cc1OC)CC[N+](C)(C)C3Cc1ccc(cc1)Oc1c(OC)c(OC)cc3c1C(C2)[N+](C)(C)CC3 (stereo unspecified) :: F
OCCOC[C@H]1O[C@H](OCCO)[C@H](OCCO)[C@@H](OCCO)[C@@H]1OCCO (tested in a mixture with another compound) :: F
CC1(C)SC2C(NC(=O)C(C(=O)O)c3ccccc3)C(=O)N2C1C(=O)O (stereo unspecified) :: F

Now look at this entry.
Query: // param item: CC(C)(C)NC[C@H](O)CSc1nc(-c2ccc(C(N)=O)s2)cs1 ; yields the recorded call
Result: F

====

test: Stat Signaling Pathway (AID 446); conditions: ME-180 SIE beta-lactamase reporter, IL-6 stimulated, 5 h; at 17.2 µM (top of the series) unless noted;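 also: ME-180 cervical cancer cells given 40 pM IL-6 alongside compound; SIE-controlled beta-lactamase reporter measured as 460/530 nm FRET emission ratio; % is scaled to controls: 0 for no effect and ±100 for the full control effect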
Records with an inconclusive call do not appear. Active and inactive are the calls of the source. Calls follow the shape of the dose curve; as a rule, active = well fitted curve in either direction with a large enough effect (not every such curve was filed as active); inconclusive = small, poorly fitted or top-dose-only effect, or another doubt; inactive = flat fitted curve, though single readings scatter.
As shown below, each of these compounds has a reported activity, negative = inhibition value.

Query: Could you share which activity, negative = inhibition value was measured for CC1(C)CC(=O)C=C(NCc2ccncc2)C1 ?
Result: 8.27% (inactive)

Query: Could you share which activity, negative = inhibition value was measured for CC12CN3CC(C)(CN(C1)C3c1ccc(Br)cc1O)C2 (stereo unspecified) ?
Result: -0.00253% (inactive)

Query: Could you share which activity, negative = inhibition value was measured for COc1ccc(CCn2c(C)ccc2C)cc1OC ?
Result: -7.94% (inactive)

Query: Could you share which activity, negative = inhibition value was measured for COc1ccc(C2CC(c3ccc(C)cc3)Nc3nc(N)nn32)cc1 (stereo unspecified) ?
Result: 1.75% (inactive)

Query: Could you share which activity, negative = inhibition value was measured for COc1ccccc1C(CC(=O)Nc1nccs1)c1ccco1 (stereo unspecified) ?
Result: -11.3% (inactive)

Query: Could you share which activity, negative = inhibition value was measured for OCCNC1=NCCN1 ?
Result: 1.85% (inactive)

Query: Could you share which activity, negative = inhibition value was measured for O=C(OCC#CCSc1nnc(-c2ccccc2)o1)c1cccs1 ?
Result: -1.99% (inactive)

Query: Could you share which activity, negative = inhibition value was measured for Fc1ccc(-c2cnc[nH]2)cc1 ?
Result: -3.45% (inactive)

Query: Could you share which activity, negative = inhibition value was measured for c1ccc(C2=Nn3c(nnc3-c3ccccn3)SC2)cc1 ?
Result: 5.46% (inactive)

Query: Could you share which activity, negative = inhibition value was measured for COc1ccc(/C(O)=C2/C(=O)C(=O)N(CCN3CCOCC3)C2c2ccccn2)cc1OC (stereo unspecified) ?
Result: -5.39% (inactive)

====

Test: Stat Signaling Pathway (AID 446);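 also: ME-180 cervical cancer cells given 40 pM IL-6 alongside compound; SIE-controlled beta-lactamase reporter measured as 460/530 nm FRET emission ratio; % is scaled to controls: 0 for no effect and ±100 for the full control effect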
Conditions: ME-180 (cervical carcinoma) SIE beta-lactamase reporter, IL-6 stimulated, 5 h; at 17.2 µM (top of the series) unless noted
Experimental: NCGC Assay Overview: The IL-6/STAT signaling pathway was assayed in ME-180 cervical carcinoma cells by a beta-lactamase reporter gene controlled by a STAT Inducible Element (SIE). This reporter is induced by IL-6 at 40 pM AC50 and inhibited by the pan JAK inhibitor, 2-(1,1-Dimethylethyl)-9-fluoro-3,6-dihydro-7H-benz[h]-imidaz[4,5-f]isoquinolin-7-one, at approximately 10 nM AC50. Plated cells were incubated overnight and on the following day, stimulated with 40 pM IL-6 for 5 hrs. […]
Results filed as inconclusive are left out. Active and inactive are the calls of the source. Calls come from the whole dose curve; as a rule, active = well fitted curve in either direction with a large enough effect (not every such curve was filed as active); inconclusive = small, poorly fitted or top-dose-only effect, or another doubt; inactive = flat fitted curve, though single readings scatter.
Test Readout: activity, negative = inhibition

Examples from the recorded data:
COc1cccc(-c2nnc3sc(C4CCCCC4)nn23)c1 :: -91.1% (active)
COc1ccc2c(c1)c(C(=O)CN1CCOCC1)c(C)n2C :: 10.6% (inactive)
CC(=O)[C@H]1CC[C@H]2[C@@H]3CCC4=CC(=O)CC[C@]4(C)[C@H]3[C@H](O)C[C@]12C :: 2.53% (inactive)
c1ccc2c(c1)[nH]c1c(N3CCN(C4CCCCC4)CC3)ncnc12 :: 0.857% (inactive)
CN1CCN([C@@H]2Cc3ccccc3Sc3ccc(Cl)cc32)CC1 :: 2.01% [at 38 µM] (inactive)

Query: Could you share which activity, negative = inhibition value was measured for CS(=O)(=O)c1ccc2nc(NC(NC(=O)c3ccco3)(C(F)(F)F)C(F)(F)F)sc2c1 ?
Result: -18.9% (inactive)

Query: Could you share which activity, negative = inhibition value was measured for CCCC1CC(=O)OC1(C)C(=O)CSc1n[nH]c(-c2ccccc2)n1 (stereo not drawn) ?
Result: -7.88% (inactive)

Query: Could you share which activity, negative = inhibition value was measured for CCCCOc1ccc(CN(C)c2ncnc(N)n2)cc1 ?
Result: 8.02% (inactive)

Query: Could you share which activity, negative = inhibition value was measured for Cn1c(=O)n(CCC(=O)O)c2ccccc21 ?
Result: 2.26% (inactive)
